Each entry below carries its recorded %Inh.
System: FLT3
Settings: concentration: 1 μM,replicates: in singlicate; n = 1;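 note: KINOMEscan kinase panel screen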
Report as a plain number; the unit % is understood.

>  <compound>
Cc1occc1-c1nc(N)c(OC[C@@H](N)Cc2c[nH]c3ccccc23)cc1-c1cc2c(C)n[nH]c2cn1 [GSK1660450]

>  <assay readout>
%Inh

>  <result units>
%

>  <obs value>
0

$$$$

Ask: Given the entry Cl.Cl.Nc1nc(-c2ccc3c(N)n[nH]c3c2)cc(N2CCCC(NC(=O)c3ccccc3)C2)n1 (centres unmarked) [GSK2286775] , what %Inh was observed with FLT3?
Result: 0

Ask: Requested read-out %Inh, target or system FLT3, entry `C[C@H]1Oc2cc(cnc2N)-c2c(nn(C)c2C#N)CN(C)C(=O)c2ccc(F)cc21`
Result: 26

Ask: %Inh of `CC(C)N1C(=O)Cc2cc(Nc3ncc(C(F)(F)F)c(NCc4cccc(S(C)(=O)=O)c4)n3)ccc21` on FLT3?
Result: 97.6

Ask: Hi! What's the reported %Inh for COc1ccc(C[C@@H](CN)NC(=O)c2cc(Br)c(-c3ccnc4[nH]ccc34)s2)cc1.Cl.Cl [GSK1389063] on FLT3?
Result: 98

Ask: Request body: readout %Inh, system FLT3, query Cc1n[nH]c2ccc(-c3cc(OC[C@@H](N)Cc4ccccc4)cnc3-c3ccoc3)cc12.O=C(O)C(F)(F)F.O=C(O)C(F)(F)F [GSK507358] . Return the value.
Result: 0

Ask: What %Inh appears in the records for this compound with FLT3? CN(C)CCOc1ccc(-c2cc(-c3c[nH]nc3-c3ccccn3)ccn2)cc1 [GW835314]
Result: 59

Ask: Write down the reported %Inh of O=C(NCCNc1ccnc(NCc2ccc(F)cc2)n1)c1cc2ccccc2s1 [GSK1379944] , test system: FLT3.
Result: 0

Ask: Please state recorded %Inh (tested on FLT3) of Cl.Cl.NC[C@H](CC1CCCCC1)NC(=O)c1cc(Br)c(-c2ccnc3[nH]ccc23)s1 [GSK1581427]
Result: 68

Ask: Checklist item: %Inh tested on FLT3, entry Cl.Oc1cc(-c2nc(-c3ccccc3)[nH]c2-c2ccncc2)ccc1Cl [SB-386023] , value?
Result: 12

Ask: Under FLT3: %Inh value of `Cc1cc2cn[nH]c2cc1-c1cccc2c(N)c(C(N)=O)nnc12` ?
Result: 10

----------
Quick list: %Inh per entry.
Test system: CSNK1G3
Conditions: concentration: 1 μM,replicates: in singlicate; n = 1
Expressed in %, but write only the number.

>  <query smiles>
Nc1nc(Nc2ccccc2)cc(-c2ccc3c(N)n[nH]c3c2)n1

>  <result units>
%

>  <obs value>
13

$$$$
>  <query smiles>
CCN(CC)CCCCNc1ncc2cc(-c3c(Cl)cccc3Cl)c(NC(=O)NC(C)(C)C)nc2n1

>  <result units>
%

>  <obs value>
0

$$$$
>  <query smiles>
C[C@@H](Oc1cc(-c2cnn(C3CCNCC3)c2)cnc1N)c1c(Cl)ccc(F)c1Cl

>  <result units>
%

>  <obs value>
0

$$$$
>  <query smiles>
CNC(=O)c1ccccc1Sc1ccc2c(/C=C/c3ccccn3)n[nH]c2c1

>  <result units>
%

>  <obs value>
0

$$$$
>  <query smiles>
Cl.Cl.NC[C@H](CC1CCCCC1)NC(=O)c1cc(Br)c(-c2ccnc3[nH]ccc23)s1

>  <result units>
%

>  <obs value>
40

$$$$

Ask: Under CSNK1G3: %Inh value of `Cc1occc1-c1nc(N)c(OC[C@@H](N)Cc2c[nH]c3ccccc23)cc1-c1cc2c(C)n[nH]c2cn1` ?
Result: 83

Ask: Form: Entry = `Cc1ccc(-n2nc(C(C)(C)C)cc2NC(=O)Nc2ccc(OCCN3CCOCC3)c3ccccc23)cc1` | System = CSNK1G3 | %Inh = ____
Result: 19

Ask: Observed %Inh on CSNK1G3 for `CC(C)Nc1cc(-c2ccc3c(N)n[nH]c3c2)nc(N)n1` , please.
Result: 19
